System: Malassezia pachydermatis (ATCC14522 strain)
Assay: Malassezia otitis externa effect test (dog) (Test Example 3)
Assay type: in vivo, dog (Beagle)
Conditions: left ear canal swab, 500 ppm agent solution for 1 minute
Description: Test Example 3: Malassezia Otitis Externa Effect Test (Dog) Test Variety: Beagle (19 to 20-Month-Old) Test Microbial Strain: Malassezia Pachydermatis (ATCC14522 Strain) A colony of the Malassezia microbe pre-cultured (7 days, 30° C.) on a Sabouraud agar medium was suspended in sterilized physiological saline (microbial concentration of 1.0 × 10^6 cells/mL), and 0.1 mL of the resulting suspension was inoculated into both ears of the test animal. […]
PROPERTY_NAME: Microbial count (cfu/ml) 7 Days after treatment
One number for each entry, in cfu/ml.

Some compounds with recorded Microbial count (cfu/ml) 7 Days after treatment:
*Q* Consider the compound Cc1ccc(-c2nc(C#N)[nH]c2Cl)cc1 and give its recorded Microbial count (cfu/ml) 7 Days after treatment.
*A* 30

*Q* Consider the compound Cc1ccc(-c2nc(C#N)[nH]c2Cl)cc1Cl and give its recorded Microbial count (cfu/ml) 7 Days after treatment.
*A* 20

*Q* Consider the compound Cc1cc(-c2nc(C#N)[nH]c2Cl)ccc1Cl and give its recorded Microbial count (cfu/ml) 7 Days after treatment.
*A* 20

Now look at this one.
*Q* Consider the compound Cc1ccc(-c2nc(C#N)n(O)c2Cl)cc1 and give its recorded Microbial count (cfu/ml) 7 Days after treatment.
*A* 20
